molecular target: Human Her2 protein (human, UniProt P04626 23-652)
// values below are reported Kd
Give the number; nM is assumed, so skip it.

Q: Read off the recorded Kd for 1139 Pro1043 (protein) QVQLQESGGGLVQPGGSLRLSCAASGFTFDDYAMSWIRQAPGKEMEWVSGINWSGTHTRYADSVKGRFTISRDNAKNTLDLQMNSLISEDTAVYYCARGFAADSRSTRGQGTQVTVSS
Ans: 5.6

Q: State its Kd: 1091 Pro1039 (protein) QVQLQESGGGLVQPGGSLRLSCAASGFTFDDYAMSWVRQAPGKGLEWVSSINWSGTHTDYADSVKGRFTISRDNAKNTLYLQMNSLKSEDSAVYYCVKGWRLTGGYYDSVQGQGTQVTVSS
Ans: 6

Entry source: patent US20230340159A1
